- Assay Method Text: protein stability index of a GFP-peptide fusion (GPS, HEK-293T) (PSI 1-6); higher = more stable;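 further: 24-mer peptide tiles fused after GFP, lentivirally expressed, FACS-sorted into six equal bins by GFP/DsRed ratio, decoded by Illumina sequencing, PSI is the read-weighted mean bin number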
- Study Conditions: treatment: DMSO; c terminus: a fixed tail appended
Measurement Label: protein stability index

sequence_chain="TRHYRPPEVILELGWAQPCDVWSI [CLK3]" experimental_value=2.69
sequence_chain="QLFTEYGRLAMDEIFQKPFQTLMF [ATL3]" experimental_value=2.33
sequence_chain="VACSETAPDLVLNAEMVQQTTYLE [LOXL2]" experimental_value=4.41
sequence_chain="IQDRLSNTLQTYIRCRHPPPGSHL [VDR]" experimental_value=2.73
sequence_chain="YFTWDEVAQRSGCEERWLVIDRKV [FADS1]" experimental_value=2.65
sequence_chain="GFVDLLDGENLKNEEETPSCMASL [CDC25A]" experimental_value=4.64
sequence_chain="DPEVLEAVGDRQDGLREQLQAPVP [PBXIP1]" experimental_value=5.43
sequence_chain="SELRRTMQALEIELQSQLSMKASL [KRT17]" experimental_value=2.46
sequence_chain="PGAGLRRPTYTPPSIMPQKHWVYV [ZBTB22]" experimental_value=2.26
sequence_chain="STFYPPYHSPELTTPPGHGTLDNS [NEUROD6]" experimental_value=4.27
sequence_chain="QHEESTEGEADHSGYAGELGFRAF [UFD1]" experimental_value=4.81
sequence_chain="MTTSIRQFTSSSSIKGSSGLGGGS [KRT17]" experimental_value=3.58
sequence_chain="EKESTELRAEEIETRVTSGSMEAL [PPFIA4]" experimental_value=5.53
sequence_chain="LAAAPEGLEDAGLDPHFVPTELWP [TEX19]" experimental_value=4.06
sequence_chain="LYTPSNEHFGIVPLEAMYMQCPVI [ALG2]" experimental_value=2.28
sequence_chain="DVEDLQRDKARLLREKVEFLRSLR [NFE2L1]" experimental_value=3.33
sequence_chain="RWGYVAMKFAQVFGCFFYVYYIFE [SOAT1]" experimental_value=3.17
sequence_chain="VFCPLDPPPPYEAVVSQMDQEQGS [FAM189A2]" experimental_value=4.65
sequence_chain="EEMAVVPQGLFRGGKSGELEQEEE [CHGA]" experimental_value=5.63
sequence_chain="QVETSIEGTIPFSKPVKVYIMPKP [INTS4]" experimental_value=2.65
sequence_chain="SIPRHFALSGKYSREFFNRRGELR [SRPK2]" experimental_value=2.74
sequence_chain="TLDKRWRVRKEAMMGLAQIYKKYA [PDS5B]" experimental_value=2.23
sequence_chain="HLKRHFMFRNHLCLVFELLSYNLY [DYRK1B]" experimental_value=3.34

* * *

Quick reference: protein stability index of the listed items.
- Assay Method Text: protein stability index of a GFP-peptide fusion (GPS, HEK-293T) (PSI 1-6); higher = more stable
- Study Conditions: treatment: DMSO; c terminus: a fixed tail appended
Measurement Label: protein stability index

sequence_chain="KIYDSPCLPEAEAMFAINADGVGD [RAD51]" experimental_value=4.71
sequence_chain="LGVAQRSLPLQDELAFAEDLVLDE [ESRRA]" experimental_value=3.38
sequence_chain="MALQLGRLSSGPCWLVARGGCGGP [CPOX]" experimental_value=2.36
sequence_chain="PGKKKIRWDPVRRRFIQSCPIIRI [KLHDC10]" experimental_value=2.01
sequence_chain="ITTVSKAKGASLFTCDLQHTETGE [VPS39]" experimental_value=4.06
sequence_chain="DRGPKGEKGEKGDRAGDASKDILL [SCARA5]" experimental_value=5.35
sequence_chain="DVMLEELSLLTNRGSKMFKLRQMR [MYOZ1]" experimental_value=2.48
sequence_chain="EEPQTVPEARSRDATPPVSPINME [JUNB]" experimental_value=5.38
sequence_chain="LHVAARYGHELLINTLITSGADTA [ANKRD44]" experimental_value=2.52
sequence_chain="LISSGMSSHKQGHTSSEYDMLREM [TAF7L]" experimental_value=3.75
sequence_chain="NAGSYIPSYTSWYPSAHQEAMQQP [DLX1]" experimental_value=2.76
sequence_chain="DLVDSLKLAVFMWLMTYVGAVFNG [RTN3]" experimental_value=3.02
sequence_chain="PTWIIDPIDGTTNFVHRFPFVAVS [IMPA1]" experimental_value=2.36
sequence_chain="RDPLQTDTLQNDYFAIKQEVVTPD [ETS1]" experimental_value=4.89
sequence_chain="GPLGDCLRDWEDLQQDFQNIQETH [TMEM120A]" experimental_value=4.63
sequence_chain="RHGGLSLVQTTDFFYPLVEDPYMM [SEPHS2]" experimental_value=2.3
sequence_chain="TRGKRESESRGSSGRVKRERDRER [USP39]" experimental_value=5.04
sequence_chain="SRVGKQSFIITLGCNSVLIQFATP [CARM1]" experimental_value=2.83
sequence_chain="KHKRQMQDPQLHSPFSGSLHAPPA [VENTX]" experimental_value=3.98
sequence_chain="SPELGRPHDRSQGDWAPPPEGGME [ZNF263]" experimental_value=5.18
sequence_chain="YRGAVYADNMEFEQCIKLWLHALH [FEM1B]" experimental_value=2.19
sequence_chain="RLPFLSSSNLSLDVLRGNDETIGF [POMP]" experimental_value=3.02

All figures here come from the supplement of paper PMC10567573.
